abundance fitness values for the variants below.
B1: Far upstream element-binding protein 3, residues 75 to 150; numbered along this chain, Q96I24 (parent)
chain: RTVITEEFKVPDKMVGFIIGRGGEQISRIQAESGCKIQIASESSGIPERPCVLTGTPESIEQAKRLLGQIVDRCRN

# Variants of: B1
# Experiment description: abundance fitness (aPCA) (normalised: wild type 0, dead -1); higher = more abundant; growth selection in yeast, the domain comes from the species named
# Applied conditions: Homo sapiens

Residue change | abundance fitness
R21L | -0.057
E7R | -0.057
R73V | -0.037
T5H | -0.071
R73Y | -0.151
Q38G | -0.105
R28W | -0.118
I26V | -0.024
R75P | -0.025
S41Y | -0.164
P50L | -0.043

All values here come from the Human Domainome abundance scans (Beltran et al. 2025).
